system: Escherichia coli; experiment: Antibacterial activity against Escherichia coli at 20 ug/ml by agar plate diffusion technique; format: functional; conditions: read-out: IZ
# label = YES if zone of inhibition at 20 µg/mL >= 8 mm else NO

Request: Hi team, for Cc1occc1-c1nnc2sc(Cc3c[nH]c4ccccc34)nn12 , is the recorded zone of inhibition at 20 µg/mL at or above 8 mm?
Response: YES

Request: Hi team, for Cc1occc1-c1nnc(S)n1N , is the recorded zone of inhibition at 20 µg/mL at or above 8 mm?
Response: YES

Request: Hi team, for Cc1cc(-c2nn3c(-c4ccoc4C)nnc3s2)c2ccccc2n1 , is the recorded zone of inhibition at 20 µg/mL at or above 8 mm?
Response: YES

Request: Hi team, for COc1ccc(Cl)c(-c2nnc3sc(-c4ccnc(Cl)c4)nn23)c1 , is the recorded zone of inhibition at 20 µg/mL at or above 8 mm?
Response: YES

Request: Hi team, for COc1ccc(Cc2nnc3sc(-c4cc(-c5ccccc5)nc5ccccc45)nn23)cc1OC , is the recorded zone of inhibition at 20 µg/mL at or above 8 mm?
Response: YES

Request: Hi team, for COc1ccc(Cl)c(-c2nnc3sc(-c4ccnc5ccccc45)nn23)c1 , is the recorded zone of inhibition at 20 µg/mL at or above 8 mm?
Response: YES

Request: Hi team, for COc1ccc(Cc2nnc3sc(-c4cc(C)nc5ccccc45)nn23)cc1OC , is the recorded zone of inhibition at 20 µg/mL at or above 8 mm?
Response: YES

Request: Hi team, for COc1ccc(Cc2nnc(S)n2N)cc1OC , is the recorded zone of inhibition at 20 µg/mL at or above 8 mm?
Response: NO

Request: Hi team, for COc1ccc(Cc2nnc3sc(-c4ccnc(F)c4)nn23)cc1OC , is the recorded zone of inhibition at 20 µg/mL at or above 8 mm?
Response: YES

Request: Hi team, for COc1ccc(Cc2nnc3n2NC(c2ccc[nH]2)S3)cc1OC (stereo not drawn) , is the recorded zone of inhibition at 20 µg/mL at or above 8 mm?
Response: NO

Request: Hi team, for Cc1occc1-c1nnc2sc(-c3ccnc(Cl)c3)nn12 , is the recorded zone of inhibition at 20 µg/mL at or above 8 mm?
Response: YES

Request: Hi team, for COc1ccc(Cc2nnc3n2NC(c2cccn2C)S3)cc1OC (stereo not drawn) , is the recorded zone of inhibition at 20 µg/mL at or above 8 mm?
Response: NO

Request: Hi team, for COc1ccc(Cl)c(-c2nnc3sc(-c4cc(C)nc5ccccc45)nn23)c1 , is the recorded zone of inhibition at 20 µg/mL at or above 8 mm?
Response: YES

Request: Hi team, for COc1ccc(Cl)c(-c2nnc(S)n2N)c1 , is the recorded zone of inhibition at 20 µg/mL at or above 8 mm?
Response: NO

Request: Hi team, for Cc1occc1-c1nnc2n1NC(c1ccc[nH]1)S2 (stereo not drawn) , is the recorded zone of inhibition at 20 µg/mL at or above 8 mm?
Response: YES

Request: Hi team, for COc1ccc(Cl)c(-c2nnc3sc(Cc4c(C)[nH]c5ccc(OC)cc45)nn23)c1 , is the recorded zone of inhibition at 20 µg/mL at or above 8 mm?
Response: NO

Request: Hi team, for COc1ccc2[nH]c(C)c(Cc3nn4c(-c5ccoc5C)nnc4s3)c2c1 , is the recorded zone of inhibition at 20 µg/mL at or above 8 mm?
Response: YES

Request: Hi team, for Cc1occc1-c1nnc2n1NC(c1cccn1C)S2 (stereo not drawn) , is the recorded zone of inhibition at 20 µg/mL at or above 8 mm?
Response: NO

Request: Hi team, for COc1ccc(Cl)c(-c2nnc3sc(-c4cc(-c5ccccc5)nc5ccccc45)nn23)c1 , is the recorded zone of inhibition at 20 µg/mL at or above 8 mm?
Response: YES

Request: Hi team, for Cc1occc1-c1nnc2sc(-c3cc(O)nc(O)c3)nn12 , is the recorded zone of inhibition at 20 µg/mL at or above 8 mm?
Response: YES

Request: Hi team, for COc1ccc(Cl)c(-c2nnc3sc(Cc4c[nH]c5ccc(OC)cc45)nn23)c1 , is the recorded zone of inhibition at 20 µg/mL at or above 8 mm?
Response: YES
